Experiment: Phase 1 study of pharmacokinetics and safety of imeglimin in subjects with renal impairment compared to normal renal function
Format: in vivo, human
Conditions: human, plasma, po, 1000 mg, 1000 mg QD oral, Day 8, CKD stage 2 (mild renal impairment; N = 5), geometric mean; read-out: Cmin
Description: An open-label, parallel-group, multi-center, multiple oral dose study to investigate the pharmacokinetics of imeglimin in subjects with renal impairment compared to subjects with normal renal function was completed. In this study, a total of 51 subjects received imeglimin at the daily dose of 1000 mg, administered either as 1000 mg QD (once a day) or 500 mg bid (twice a day) during 8 days. […] Measurement of the urine to plasma ratio of creatinine using 24 hours urine sampling was calculated (CLCrea). […]
Result Type: concentration at 8 day

Prompt line: Requested read-out: concentration at 8 day. Entry: C[C@H]1N=C(N(C)C)N=C(N)N1 [imeglimin]
Response line: 178 ng/mL

###

Assay: Phase 1 study of pharmacokinetics and safety of imeglimin in subjects with renal impairment compared to normal renal function
Assay type: in vivo, human
Conditions: human, plasma, po, 500 mg, 500 mg bid oral, Day 8, Part 2 normal renal function (N = 6), geometric mean; read-out: AUC0-τ
Result Type: AUC

Prompt line: Data request, read-out AUC, for C[C@H]1N=C(N(C)C)N=C(N)N1
Response line: 6970 ng·h/mL

###

Assay: Phase 1 study of pharmacokinetics and safety of imeglimin in subjects with renal impairment compared to normal renal function
Format: in vivo, human
Conditions: human, urine, po, 500 mg, 500 mg bid oral, Day 8, CKD Stage 3 (moderate renal impairment) (N = 6), geometric mean (CV %); read-out: CLR
Result Type: CL renal (mL/min)
Could you give me the number in mL/min? Just the number is fine.

Prompt line: Need CL renal of C[C@H]1N=C(N(C)C)N=C(N)N1 [imeglimin] , thanks.
Response line: 193

###

Test: Phase 1 study of pharmacokinetics and safety of imeglimin in subjects with renal impairment compared to normal renal function
Type: in vivo, human
Conditions: human, plasma, po, 1000 mg, 1000 mg QD oral, Day 8, CKD Stage 3 (moderate renal impairment; N = 6), geometric mean
Result Type: Cmax (ng/mL)
Respond numerically; units are ng/mL and should not be typed.

Prompt line: What value of Cmax has been recorded for this entry: C[C@H]1N=C(N(C)C)N=C(N)N1 [imeglimin]
Response line: 2570

###

Assay: Phase 1 study of pharmacokinetics and safety of imeglimin in subjects with renal impairment compared to normal renal function
Assay type: in vivo, human
Conditions: human, plasma, po, 500 mg, 500 mg bid oral, Day 8, Part 1 CKD Stage 3 (moderate renal impairment; N = 6), median; read-out: tmax
Method: An open-label, parallel-group, multi-center, multiple oral dose study to investigate the pharmacokinetics of imeglimin in subjects with renal impairment compared to subjects with normal renal function was completed. In this study, a total of 51 subjects received imeglimin at the daily dose of 1000 mg, administered either as 1000 mg QD (once a day) or 500 mg bid (twice a day) during 8 days. […] Measurement of the urine to plasma ratio of creatinine using 24 hours urine sampling was calculated (CLCrea). […]
Result Type: Tmax (h)
Respond with the bare value in h.

Prompt line: Fill in: Tmax of C[C@H]1N=C(N(C)C)N=C(N)N1 is ___
Response line: 3.5

###

Experiment: Phase 1 study of pharmacokinetics and safety of imeglimin in subjects with renal impairment compared to normal renal function
Format: in vivo, human
Conditions: human, plasma, po, 1000 mg, 1000 mg QD oral, Day 8, CKD stage 2 (mild renal impairment; N = 5), geometric mean
Result Type: Cmax (ng/mL)
Answer with a number only, understood to be in ng/mL.

Prompt line: Which measured Cmax value corresponds to C[C@H]1N=C(N(C)C)N=C(N)N1 [imeglimin] ?
Response line: 2050

###

Experiment: Phase 1 study of pharmacokinetics and safety of imeglimin in subjects with renal impairment compared to normal renal function
Assay type: in vivo, human
Details: human, plasma, po, 1000 mg, 1000 mg QD oral, Day 8, CKD Stage 3 (moderate renal impairment; N = 6), geometric mean; read-out: Vz/F
Result Type: Vd/F (L)
A number alone suffices; assume L.

Prompt line: Item under review: C[C@H]1N=C(N(C)C)N=C(N)N1 [imeglimin] . Reported Vd/F?
Response line: 1160

###

Test: Phase 1 study of pharmacokinetics and safety of imeglimin in subjects with renal impairment compared to normal renal function
Type: in vivo, human
Settings: human, plasma, po, 1000 mg, 1000 mg QD oral, Day 8, CKD stage 2 (mild renal impairment; N = 5), geometric mean; read-out: Vz/F
Result Type: Vd/F (L)
Unit L implied. Number only.

Prompt line: Given C[C@H]1N=C(N(C)C)N=C(N)N1 , state its recorded Vd/F.
Response line: 1070

###

Assay: Daily steady-state exposure (AUC24,ss) in a Phase 2b clinical study
Format: in vivo
Conditions: human, plasma, oral, 1500 mg, 1500 mg BID treatment arm; read-out: mean AUC24,ss
Result Type: AUC (ng·h/mL)
Lab book: enter the figure in ng·h/mL, no units written.

Prompt line: Give its AUC value. Item: C[C@H]1N=C(N(C)C)N=C(N)N1
Response line: 36500

###

Test: Phase 1 study of pharmacokinetics and safety of imeglimin in subjects with renal impairment compared to normal renal function
Type: in vivo, human
Settings: human, plasma, po, 500 mg, 500 mg bid oral, Day 8, Part 2 normal renal function (N = 6), geometric mean; read-out: Cav
Result Type: concentration at 8 day (ng/mL)
Numeric only. Scale: ng/mL

Prompt line: What value of measured concentration at 8 day is listed for C[C@H]1N=C(N(C)C)N=C(N)N1 ?
Response line: 581

###

Assay: Phase 1 study of pharmacokinetics and safety of imeglimin in subjects with renal impairment compared to normal renal function
Assay type: in vivo, human
Conditions: human, plasma, po, 500 mg, 500 mg bid oral, Day 8, Part 1 normal renal function (N = 8), geometric mean
Result Type: Cmax (ng/mL)
Write the value in ng/mL as a bare number.

Prompt line: So what's the measured Cmax for this one? C[C@H]1N=C(N(C)C)N=C(N)N1
Response line: 1030

###

Test: Phase 1 study of pharmacokinetics and safety of imeglimin in subjects with renal impairment compared to normal renal function
Format: in vivo, human
Conditions: human, plasma, po, 1000 mg, 1000 mg QD oral, Day 8, CKD Stage 3 (moderate renal impairment; N = 6), geometric mean; read-out: Cav
Protocol: An open-label, parallel-group, multi-center, multiple oral dose study to investigate the pharmacokinetics of imeglimin in subjects with renal impairment compared to subjects with normal renal function was completed. In this study, a total of 51 subjects received imeglimin at the daily dose of 1000 mg, administered either as 1000 mg QD (once a day) or 500 mg bid (twice a day) during 8 days. […] Measurement of the urine to plasma ratio of creatinine using 24 hours urine sampling was calculated (CLCrea). […]
Result Type: concentration at 8 day (ng/mL)
Return type: number; implicit unit ng/mL.

Prompt line: GET /values?readout=concentration at 8 day&item= C[C@H]1N=C(N(C)C)N=C(N)N1
Response line: 1210

###

Experiment: Phase 1 study of pharmacokinetics and safety of imeglimin in subjects with renal impairment compared to normal renal function
Format: in vivo, human
Details: human, urine, po, 1000 mg, 1000 mg QD oral, Day 8, CKD Stage 2 (mild renal impairment), N = 2; min, max; read-out: CLR (renal clearance)
Result Type: CL renal

Prompt line: Could you tell me which CL renal is on file for C[C@H]1N=C(N(C)C)N=C(N)N1 [imeglimin] ?
Response line: 388 to 522 mL/min

###

Assay: Daily steady-state exposure (AUC24,ss) in a Phase 2b clinical study
Type: in vivo
Settings: human, plasma, oral, 1500 mg, 1500 mg BID treatment arm; read-out: AUC24,ss range
Result Type: AUC

Prompt line: # query: AUC of entry C[C@H]1N=C(N(C)C)N=C(N)N1 [imeglimin]
Response line: 10100 to 169000 ng·h/mL

###

Assay: Phase 1 study of pharmacokinetics and safety of imeglimin in subjects with renal impairment compared to normal renal function
Type: in vivo, human
Conditions: human, plasma, po, 500 mg, 500 mg bid oral, Day 8, Part 2 CKD Stage 4 (severe renal impairment; N = 5), median; read-out: tmax
Result Type: Tmax

Prompt line: What value of Tmax has been recorded for this entry: C[C@H]1N=C(N(C)C)N=C(N)N1 [imeglimin]
Response line: 3.5 h

###

Assay: Phase 1 study of pharmacokinetics and safety of imeglimin in subjects with renal impairment compared to normal renal function
Assay type: in vivo, human
Conditions: human, plasma, po, 500 mg, 500 mg bid oral, Day 8, Part 2 CKD Stage 4 (severe renal impairment; N = 5), geometric mean; read-out: AUC0-τ
Result Type: AUC
Your reply should be a number followed by the unit it is expressed in.

Prompt line: I have this compound here, C[C@H]1N=C(N(C)C)N=C(N)N1 [imeglimin] , and I need its recorded AUC.
Response line: 24800 ng·h/mL

Where these numbers come from: patent US12036226B2
